OD reference
TARGET UNDER TEST: T1, marmoset IL-17A (marmoset, IL-17A is a disulfide-linked homodimer. One chain is given.)
T1 chain: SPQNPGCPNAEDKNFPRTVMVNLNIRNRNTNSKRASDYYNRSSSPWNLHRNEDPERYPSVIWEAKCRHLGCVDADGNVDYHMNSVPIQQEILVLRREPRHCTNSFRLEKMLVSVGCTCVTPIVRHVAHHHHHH
PROTOCOL TEXT: ELISA, coated IL-17A

BINDER	OD
04G01 (VHH, Class 2; also called IL17MS04G01) VHH: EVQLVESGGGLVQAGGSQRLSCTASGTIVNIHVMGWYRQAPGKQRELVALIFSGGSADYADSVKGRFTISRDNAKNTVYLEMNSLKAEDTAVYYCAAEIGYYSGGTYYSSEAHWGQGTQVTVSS	1.93 OD
13E05 (VHH, Class 4) VHH: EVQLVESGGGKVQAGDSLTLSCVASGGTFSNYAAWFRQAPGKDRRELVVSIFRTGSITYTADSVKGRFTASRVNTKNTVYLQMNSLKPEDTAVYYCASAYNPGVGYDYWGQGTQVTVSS	1.89 OD
11A06 (VHH, Class 2) VHH: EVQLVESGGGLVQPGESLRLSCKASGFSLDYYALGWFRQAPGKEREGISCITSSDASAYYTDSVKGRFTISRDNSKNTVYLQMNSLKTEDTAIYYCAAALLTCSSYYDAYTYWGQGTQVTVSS	1.71 OD
01A01 (VHH, Class 4) VHH: EVQLVESGGGLVQAGGSLRLSCAASGFTFDDYDIGWFRQAPGKEREGVSCFTSSDGRTFYADSVKGRFTVSADNAKNTVYLQMNSLEPEDTAVYFCAAVNTFDESAYAAFACYDVVRWGQGTQVTVSS	1.84 OD
